Provenance of the data: patent US20250002487A1

Quick record: IC50, human-cGAS (h-cGAS) (Homo sapiens, UniProt Q8N884).
EXPERIMENTAL ENDPOINT: IC50

• CSc1nnc(NC(=O)c2nc(-c3cccs3)oc2C)s1 [Compound 77] = ≥ 1000 nM
• CSc1nnc(NC(=O)c2cc(-c3ccccc3)ncn2)s1 [Compound 201] = ≥ 1000 nM
• COCc1cc(C(=O)Nc2nnc(-c3ccccc3Cl)s2)on1 [Compound 170] = 100 to 500 nM
• CSc1nnc(NC(=O)c2nc(-c3cnccn3)no2)s1 [Compound 71] = 500 to 1000 nM
• CSc1nnc(NC(=O)c2onc3ccc(Cn4cc(C(=O)O)c(=O)c5ccccc54)cc23)s1 [Compound 184] = ≥ 1000 nM
• CSc1nnc(NC(=O)c2nnn(Cc3cccnc3)n2)s1 [Compound 135] = ≥ 1000 nM
• CSc1nnc(NC(=O)c2nnc3ccccn23)s1 [Compound 260] = ≥ 1000 nM
• CCc1cc(C(=O)Nc2nnc(-c3ccccc3Cl)s2)on1 [Compound 33] = 100 to 500 nM
• CSc1nnc(NC(=O)c2cn(Cc3ccccc3)nn2)s1 [Compound 42] = ≥ 1000 nM
• O=C(Nc1nnc(-c2ccccc2F)s1)c1onc2ccccc12 [Compound 26] = 100 to 500 nM
• CSc1nnc(NC(=O)c2cc(-c3cccc(OC(F)(F)F)c3)no2)s1 [Compound 83] = ≥ 1000 nM
• CSc1nnc(NC(=O)c2cc(-c3ccc4ccccc4n3)cc(=O)o2)s1 [Compound 254] = 100 to 500 nM
• CSc1nnc(NC(=O)c2cc(-c3ccc(C)cc3)cc(=O)o2)s1 [Compound 250] = 100 to 500 nM
• CSc1nnc(NC(=O)c2cc(-c3cccc(F)c3)no2)s1 [Compound 211] = 500 to 1000 nM
• O=C(Nc1nnc(-c2ccccn2)s1)c1onc2c1ccc1cccnc12 [Compound 10] = 100 to 500 nM
• CSc1nnc(NC(=O)c2onc3c(CO)cccc23)s1 [Compound 168] = 500 to 1000 nM
• CSc1nnc(NC(=O)c2cc(-c3cncc4ccccc34)cc(=O)o2)s1 [Compound 256] = 500 to 1000 nM
• CSc1nnc(NC(=O)c2cc(-c3cccc(Cl)c3)no2)s1 [Compound 209] = 500 to 1000 nM
• O=C(Nc1nnc(-c2ccccc2Cl)s1)c1nc[nH]n1 [Compound 58] = 500 to 1000 nM

* * *

# SYSTEM: human-cGAS (h-cGAS) (Homo sapiens, UniProt Q8N884)
# Sequence (Q8N884 whole entry): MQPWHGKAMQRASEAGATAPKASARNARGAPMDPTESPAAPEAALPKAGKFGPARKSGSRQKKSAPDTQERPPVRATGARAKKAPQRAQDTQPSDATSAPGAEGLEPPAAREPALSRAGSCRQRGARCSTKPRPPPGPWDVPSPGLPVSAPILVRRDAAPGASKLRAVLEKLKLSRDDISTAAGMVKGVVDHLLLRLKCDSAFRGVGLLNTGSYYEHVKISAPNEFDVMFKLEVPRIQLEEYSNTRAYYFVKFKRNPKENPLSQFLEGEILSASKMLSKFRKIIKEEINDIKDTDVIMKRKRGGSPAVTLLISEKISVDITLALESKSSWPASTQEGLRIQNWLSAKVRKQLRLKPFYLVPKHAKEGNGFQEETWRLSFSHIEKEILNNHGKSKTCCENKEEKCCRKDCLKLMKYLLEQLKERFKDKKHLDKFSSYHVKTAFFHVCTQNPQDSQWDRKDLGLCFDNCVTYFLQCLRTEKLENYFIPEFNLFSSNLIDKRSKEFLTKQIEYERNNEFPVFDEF
EXPERIMENTAL ENDPOINT: IC50

* CSc1nnc(NC(=O)c2onc3ccc(Cc4c[nH]c(=O)c(O)c4)cc23)s1 | ≥ 1000 nM
* CSc1nnc(NC(=O)c2cc(-c3cccc4c3cnn4C)cc(=O)o2)s1 | 100 to 500 nM
* Cc1cnc(-c2cc(C(=O)Nc3nnc(-c4ccccc4Cl)s3)on2)nc1 | 100 to 500 nM
* COC(=O)c1cc(C(=O)Nc2nnc(SC)s2)on1 | 500 to 1000 nM
* CSc1nnc(NC(=O)c2onc3c(C)cccc23)s1 | ≥ 1000 nM
* O=C(Nc1nnc(-c2ccccc2Cl)s1)c1c[nH]c(=O)o1 | 100 to 500 nM
* CSc1nnc(NC(=O)c2nnc(Cc3ccccc3Cl)o2)s1 | 500 to 1000 nM
* COC(=O)c1cc(C(=O)Nc2nnc(-c3ccccc3Cl)s2)on1 | 100 to 500 nM
* O=C(Nc1nnc(-c2ccccc2Cl)s1)c1cc(-c2ccccc2)cc(=O)o1 | 100 to 500 nM
